Reference source: the supplement of paper PMC7877785

test: self-splicing fitness, log relative to wild type (ln ratio); higher = more splicing; Tetrahymena group I intron in knt gene, E. coli kanamycin selection, DiMSum; sequences stand for … in CUCUCU…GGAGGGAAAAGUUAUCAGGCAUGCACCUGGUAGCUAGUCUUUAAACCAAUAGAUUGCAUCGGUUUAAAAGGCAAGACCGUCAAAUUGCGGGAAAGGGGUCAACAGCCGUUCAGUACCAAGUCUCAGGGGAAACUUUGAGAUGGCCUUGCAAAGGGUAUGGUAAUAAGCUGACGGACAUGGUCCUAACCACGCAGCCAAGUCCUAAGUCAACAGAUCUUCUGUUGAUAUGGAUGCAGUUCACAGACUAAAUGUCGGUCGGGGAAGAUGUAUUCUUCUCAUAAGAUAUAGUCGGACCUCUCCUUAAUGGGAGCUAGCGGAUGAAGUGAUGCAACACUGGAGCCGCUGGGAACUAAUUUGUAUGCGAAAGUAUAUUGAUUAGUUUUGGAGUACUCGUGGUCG; settings: 30 °C;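 further: selection with 25 µg/mL kanamycin versus none on LB agar overnight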
OUTCOME MEASURE: self-splicing fitness (ln)
Answer as a number with no unit attached.

Item UGACAGCAAUAUUACGUCCG : provide self-splicing fitness (ln)
-0.00105

Provide only the value of recorded self-splicing fitness (ln) for AAUAAGCAAUAUUACGCCCG
-1.39

###

Overview of reported self-splicing fitness (ln) across a group of sequences:
assay: self-splicing fitness, log relative to wild type (ln ratio); higher = more splicing; Tetrahymena group I intron in knt gene, E. coli kanamycin selection, DiMSum; sequences stand for … in CUCUCU…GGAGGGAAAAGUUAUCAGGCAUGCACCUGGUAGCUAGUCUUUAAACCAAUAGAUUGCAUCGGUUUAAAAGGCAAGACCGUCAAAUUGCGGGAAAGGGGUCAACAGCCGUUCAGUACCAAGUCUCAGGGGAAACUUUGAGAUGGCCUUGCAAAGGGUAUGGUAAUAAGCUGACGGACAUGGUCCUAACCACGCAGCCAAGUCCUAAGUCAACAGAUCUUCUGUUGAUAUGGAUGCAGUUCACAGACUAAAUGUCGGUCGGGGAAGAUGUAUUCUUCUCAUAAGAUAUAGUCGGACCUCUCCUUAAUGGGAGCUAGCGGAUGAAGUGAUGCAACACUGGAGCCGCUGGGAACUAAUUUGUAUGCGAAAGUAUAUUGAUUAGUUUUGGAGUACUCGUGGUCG; details: 30 °C

primary_sequence=CCGAAGCAAUAUUACGGGUC outcome_measure="self-splicing fitness (ln)" meas_value=-3.13
primary_sequence=CUGGAGCAAUAUUACGCACG outcome_measure="self-splicing fitness (ln)" meas_value=-0.0736
primary_sequence=ACUUAGCAAUAUUACGCACU outcome_measure="self-splicing fitness (ln)" meas_value=-0.553
primary_sequence=AGCGAGCAAUAUUACGACUU outcome_measure="self-splicing fitness (ln)" meas_value=-0.736

Name the recorded self-splicing fitness (ln) of the item AUUUAGCAAUAUUACGCAGG in your answer.
-3.36

###

experiment: self-splicing fitness, log relative to wild type (ln ratio); higher = more splicing; Tetrahymena group I intron in knt gene, E. coli kanamycin selection, DiMSum; sequences stand for … in CUCUCU…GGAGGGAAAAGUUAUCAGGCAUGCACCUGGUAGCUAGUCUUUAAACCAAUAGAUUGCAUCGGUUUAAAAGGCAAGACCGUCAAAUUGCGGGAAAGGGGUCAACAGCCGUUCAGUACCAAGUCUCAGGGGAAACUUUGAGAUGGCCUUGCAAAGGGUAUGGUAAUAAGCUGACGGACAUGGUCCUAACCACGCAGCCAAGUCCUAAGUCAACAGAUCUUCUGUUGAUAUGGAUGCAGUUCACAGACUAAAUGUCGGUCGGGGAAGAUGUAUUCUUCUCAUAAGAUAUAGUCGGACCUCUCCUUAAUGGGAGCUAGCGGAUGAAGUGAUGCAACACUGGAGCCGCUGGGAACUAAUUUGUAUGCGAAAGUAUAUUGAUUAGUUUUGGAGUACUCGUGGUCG; details: 30 °C
self-splicing fitness (ln) of -2 or higher: t. Under -2: f.

primary_sequence=CGGAAGCAAUAUUACGUCUA category=t
primary_sequence=CUCAAGCAAUAUUACGAGGC category=f
primary_sequence=UGCAAGCAAUAUUACGCUGA category=f

Now look at this one.
Hello, I need to know if AGGGAGCAAUAUUACGGUGC has measured self-splicing fitness (ln) not below -2. Thanks!
f

###

assay: self-splicing fitness, log relative to wild type (ln ratio); higher = more splicing; Tetrahymena group I intron in knt gene, E. coli kanamycin selection, DiMSum; sequences stand for … in CUCUCU…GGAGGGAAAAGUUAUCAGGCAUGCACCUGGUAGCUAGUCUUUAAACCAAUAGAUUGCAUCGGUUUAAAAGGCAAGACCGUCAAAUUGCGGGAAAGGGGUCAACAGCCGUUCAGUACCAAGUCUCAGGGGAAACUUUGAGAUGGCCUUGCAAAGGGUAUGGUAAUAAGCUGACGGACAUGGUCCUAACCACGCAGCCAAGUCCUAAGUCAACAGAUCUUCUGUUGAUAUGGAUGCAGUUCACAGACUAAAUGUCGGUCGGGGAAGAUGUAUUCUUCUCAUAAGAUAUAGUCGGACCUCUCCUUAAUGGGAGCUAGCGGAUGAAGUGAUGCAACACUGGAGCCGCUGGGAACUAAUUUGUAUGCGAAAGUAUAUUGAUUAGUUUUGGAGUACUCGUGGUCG; details: 37 °C
Think of -2 as a floor: if self-splicing fitness (ln) stands on it or above, it is Fulfilled; beneath it, Not fulfilled.

primary_sequence=UCCUAGCAAUAUUACGAAGU category=Fulfilled
primary_sequence=UGCCAGCAAUAUUACGGAGC category="Not fulfilled"
primary_sequence=CAUCAGCAAUAUUACGCUCA category=Fulfilled

# check: self-splicing fitness (ln) of UAGAAGCAAUAUUACGAAUA is greater than or equal to -2
Fulfilled

Hi, just wondering whether GUGCAGCAAUAUUACGCGUG shows self-splicing fitness (ln) of -2 or higher.
Fulfilled

Decide: is the reported value of self-splicing fitness (ln) for GACAAGCAAUAUUACGGAUC equal to or greater than -2?
Fulfilled

Would you say CACUAGCAAUAUUACGGGCU shows self-splicing fitness (ln) at minimum -2?
Not fulfilled

Check if self-splicing fitness (ln) >= -2 (inclusive). Item: UAGGAGCAAUAUUACGGCAA
Fulfilled

###

test: self-splicing fitness, log relative to wild type (ln ratio); higher = more splicing; Tetrahymena group I intron in knt gene, E. coli kanamycin selection, DiMSum; sequences stand for … in CUCUCU…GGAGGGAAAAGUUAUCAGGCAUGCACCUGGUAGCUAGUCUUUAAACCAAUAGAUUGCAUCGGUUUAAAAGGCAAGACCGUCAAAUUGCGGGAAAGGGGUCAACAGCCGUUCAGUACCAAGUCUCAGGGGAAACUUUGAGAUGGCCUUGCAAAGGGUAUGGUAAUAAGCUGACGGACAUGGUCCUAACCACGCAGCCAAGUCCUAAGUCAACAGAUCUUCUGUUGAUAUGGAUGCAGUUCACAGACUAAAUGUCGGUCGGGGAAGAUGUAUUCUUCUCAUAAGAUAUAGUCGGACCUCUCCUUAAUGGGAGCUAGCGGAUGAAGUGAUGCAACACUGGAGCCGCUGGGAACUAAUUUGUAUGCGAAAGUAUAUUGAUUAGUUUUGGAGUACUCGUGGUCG; details: 30 °C
Classes based on self-splicing fitness (ln): I: < -3; II: ≥ -3 and < -2; III: ≥ -2

Illustrative cases are given below, each with its answer.
primary_sequence=CCAAAGCAAUAUUACGUGCC category=I
primary_sequence=CUACAGCAAUAUUACGCGAG category=II
primary_sequence=CCCUAGCAAUAUUACGGGAC category=II
primary_sequence=GAACAGCAAUAUUACGCGCC category=III
primary_sequence=ACAGAGCAAUAUUACGUCGA category=I

Category of UCUAAGCAAUAUUACGACUC :
I

Which self-splicing fitness (ln) category applies to CUGUAGCAAUAUUACGAUAG here?
III

Kindly state the category for this sequence: GUGCAGCAAUAUUACGCGUG
III

Please indicate the class for GUCCAGCAAUAUUACGGUGA based on its self-splicing fitness (ln).
III

Exercise: read the entry UCAAAGCAAUAUUACGCAGG and state which class it falls under.
I

###

assay: self-splicing fitness, log relative to wild type (ln ratio); higher = more splicing; Tetrahymena group I intron in knt gene, E. coli kanamycin selection, DiMSum; sequences stand for … in CUCUCU…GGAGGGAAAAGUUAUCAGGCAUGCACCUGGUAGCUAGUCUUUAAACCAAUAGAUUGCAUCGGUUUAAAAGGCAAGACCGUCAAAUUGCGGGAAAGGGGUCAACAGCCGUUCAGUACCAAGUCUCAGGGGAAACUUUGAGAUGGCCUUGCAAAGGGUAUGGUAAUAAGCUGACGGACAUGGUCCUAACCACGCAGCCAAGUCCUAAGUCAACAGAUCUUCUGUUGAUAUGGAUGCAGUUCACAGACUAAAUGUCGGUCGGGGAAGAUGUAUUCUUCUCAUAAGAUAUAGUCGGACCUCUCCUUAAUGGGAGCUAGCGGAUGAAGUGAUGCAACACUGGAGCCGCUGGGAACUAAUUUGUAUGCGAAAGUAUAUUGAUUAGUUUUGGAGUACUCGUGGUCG; conditions: 37 °C
OUTCOME MEASURE: self-splicing fitness (ln)
API note: the answer field is a bare number with no unit suffix.

Would you please look over these solved cases?
primary_sequence=UUAAAGCAAUAUUACGGCCC meas_value=0.305
primary_sequence=UGUAAGCAAUAUUACGUGCU meas_value=-0.148
primary_sequence=UUAGAGCAAUAUUACGUGGG meas_value=-1.92

Please give measured self-splicing fitness (ln) of the following entry: CAUGAGCAAUAUUACGUAGC
-1.96

Consider the sequence UCCCAGCAAUAUUACGACCA . State its measured self-splicing fitness (ln).
-1.06

Look up and state reported self-splicing fitness (ln) for AUUCAGCAAUAUUACGCACA
-0.192

Give the reported self-splicing fitness (ln) for this sequence. GUGUAGCAAUAUUACGUAGC
-1.41

Please report self-splicing fitness (ln) for the following sequence: UUACAGCAAUAUUACGACCU
-1.25

Output self-splicing fitness (ln) of CCUCAGCAAUAUUACGCAAA
-2.46

Please indicate self-splicing fitness (ln) recorded for GGUGAGCAAUAUUACGGCGC
-0.198

Annotate the sequence UGACAGCAAUAUUACGUCCG with its measured self-splicing fitness (ln).
-0.342

Note self-splicing fitness (ln) for the sequence shown: UCUGAGCAAUAUUACGUGUU
-2.55
